- Tested on: NCI-H460 lung
- PROTOCOL TEXT: NCI-60 one-dose screen, 48 h (100 = growth as untreated, 0 = no growth, -100 = all killed)
- APPLIED CONDITIONS: 10 µM unless noted
- Protocol: Growth inhibition of the NCI-H460 human Non-Small Cell Lung tumor cell line is measured as a screen for anti-cancer activity. Cells are grown in 96 well plates and exposed to the test compound for 48 hours. Compounds are tested at a single concentration, which is 10^-5 M for most compounds. The reported endpoint is percent growth (GI% or GIPRCNT), where numbers from 0 - 100% represent growth inhibition, and numbers from -100% - 0 represent cell death. […]
Compounds without any hit were thinned out: in the full panel of roughly 83,000, 20% have a hit.
# strict inequality: growth < 90% yields True, everything else yields False

Field: example entries. Status: answers known.
COc1ccc(N=N/N=c2\sc3cc(OC)ccc3n2C)cc1    False
C1=C(c2ccccc2)C(c2ccc(OCCN3CCCCC3)cc2)Oc2ccccc21 (centres undefined)    True
CCCCCCCCCCCCCCCCOP(=O)([O-])OCC[N+](C)(C)C    True
C=C(Cl)C(=NC(C)(C)C)Nc1ccccc1C    False
NC(=O)/C=C/C(=O)c1c(Cl)cccc1Cl    True
COC(=O)[C@@]12OC[C@]34[C@H]([C@@H](O)[C@@H]1O)[C@@]1(C)[C@H](O)C(=O)C=C(C)[C@@H]1C[C@H]3OC(=O)C(OC(C)=O)[C@@H]24 (some centres undefined)    True
O=C1c2ccccc2C(=O)N1c1ccccc1    False
COC(=O)c1nc(=S)[nH]c(C(=O)OC)c1C(=O)c1ccccn1    True

Request: In plain terms, does O[C@H]1[C@H]2c3cc4c(cc3CN3CCC(=C[C@@H]1O)[C@H]23)OCO4 come in under 90% for growth?
Result: True

Request: Criterion: growth strictly below 90%. Is it met by CN(C)C(=O)SC1=C(c2c(Cl)cccc2Cl)C(=O)c2ccccc21 ?
Result: False

Request: Is growth strictly under 90% for the entry Cc1ccc2c(ccc3c[n+]4c5ccccc5ccc4n32)c1 ?
Result: True

Request: Say whether its growth is strictly beneath 90%. Entry: O=C(O)c1ccc2c3c(ncnc13)-c1ccccc1C2=O
Result: True

Request: Dear reviewer, please state whether C/C=C1\SC(=S)NC1=O has growth strictly beneath 90%.
Result: False
